- Test system: HL-60
- assay_name: Cell growth inhibition, resazurin, 48 h
- experimental_parameters: Homo sapiens, HL-60, 48 h, HL-60, 48 h drug exposure
pEC50 listing for selected compounds.
Here pEC50 is given on a logarithmic scale as minus log10 of the concentration in mol/L.

compound	observed_property	observed_value
C[C@@]12OC(=O)[C@]1([C@@H](O)C1CCCCC1)NC(=O)[C@@H]2CCCl [Formula II-2]	pEC50	6.63

Ask: Field request: pEC50 | item: C[C@@]12OC(=O)[C@]1([C@@H](O)[C@@H]1C=CCCC1)NC(=O)[C@@H]2CCBr [Formula II-18]
Result: 7.57

Ask: Field request: pEC50 | item: C[C@@]12OC(=O)[C@]1([C@@H](O)[C@@H]1C=CCCC1)NC(=O)[C@@H]2CCCl [Formula II-16, Salinosporamide A]
Result: 7.57

Ask: Field request: pEC50 | item: C[C@@]12OC(=O)[C@]1([C@@H](O)C1CCCCC1)NC(=O)[C@@H]2CCBr [Formula II-4]
Result: 6.84

----------
- System: NCI-H292
- assay_name: Cell growth inhibition, resazurin, 48 h
- Format: cell-based, human
- experimental_parameters: Homo sapiens, NCI-H292, 48 h, NCI-H292, 48 h drug exposure
EC50 listing for selected compounds.
State the result as a value with its unit after it.

# annotated cases, reported EC50 shown
compound	tested_target	EC50
C[C@@]12OC(=O)[C@]1([C@@H](O)[C@H]1CCC[C@@H]3O[C@H]13)NC(=O)[C@@H]2CCCl [Formula II-5B]	NCI-H292	992 nM
C[C@@]12OC(=O)[C@]1([C@@H](O)[C@H]1CCC[C@H]3O[C@@H]13)NC(=O)[C@@H]2CCCl [Formula II-5A]	NCI-H292	102 nM
C[C@@]12OC(=O)[C@]1([C@@H](O)[C@@H]1C=CCCC1)NC(=O)[C@@H]2CCCl [Formula II-16, Salinosporamide A]	NCI-H292	97 nM

// below: EC50 requested for another compound
Ask: Request: EC50, test system NCI-H292, entry C[C@@]12OC(=O)[C@]1([C@@H](O)[C@@H]1C=CCCC1)NC(=O)[C@@H]2CCI [Formula II-19]
Result: 27 nM

----------
- tested_target: Thrombin (Homo sapiens)
- assay_name: Specificity: inhibition of other proteolytic enzymes
observed_property: EC50

Ask: Field request: EC50 | item: C[C@@]12OC(=O)[C@]1([C@@H](O)[C@@H]1C=CCCC1)NC(=O)[C@@H]2CCCl [Formula II-16, Salinosporamide A]
Result: > 200 µM

----------
- Tested on: LeTx-induced cytotoxicity of RAW264.7 cells
- assay_name: cells
- Type: cell-based, murine
- experimental_parameters: Mus musculus, RAW264.7
pEC50: −log10 of the molar value.
observed_property: pEC50

Ask: Field request: pEC50 | item: C[C@@]12OC(=O)[C@]1([C@@H](O)[C@@H]1C=CCCC1)NC(=O)[C@@H]2CCCl [Formula II-16, Salinosporamide A]
Result: > 8.40

----------
- tested_target: caspase-like (PGPH) activity of rabbit muscle 20S proteasome (Oryctolagus cuniculus)
- Sequence (A0A5F9DQW2 1-212): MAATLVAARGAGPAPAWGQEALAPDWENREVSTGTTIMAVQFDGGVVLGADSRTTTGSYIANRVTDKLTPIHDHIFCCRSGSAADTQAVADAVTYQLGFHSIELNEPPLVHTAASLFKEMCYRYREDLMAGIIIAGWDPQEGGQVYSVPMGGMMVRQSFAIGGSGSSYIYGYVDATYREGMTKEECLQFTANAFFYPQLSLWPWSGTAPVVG
- assay_name: In vitro inhibition of 20S proteasome, Z-LLE-AMC
- experimental_parameters: read-out: EC50 Caspase-like; purified rabbit 20S proteasome, Z-LLE-AMC
EC50 listing for selected compounds.
State just the number; it will be interpreted in nM.

mol	observed_value
C[C@@]12OC(=O)[C@]1([C@@H](O)[C@@H]1C=CCCC1)NC(=O)[C@@H]2CCO	2300

Ask: Field request: EC50 | item: `COC(=O)CCSC(=O)[C@]1([C@@H](O)[C@@H]2C=CCCC2)NC(=O)[C@H](CCCl)[C@]1(C)O`
Result: 1400
